B1: NEK8 (parent)
chain: YTFGSNQHGQLGTNTRRGSRAPCK

# Variants of: B1
# method-notes: protein stability index of a GFP-peptide fusion (GPS, HEK-293T) (PSI 1-6); higher = more stable;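 further: lentivirally expressed fusions sorted by FACS into six bins by GFP to DsRed ratio, PSI derived from sequencing read proportions per bin multiplied by bin number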
# assay-conditions: c terminus: a fixed tail appended
Field: protein stability index. Provide a value for each of the variants that follow.
One number for each entry.

Sample answers from the record:
INSERT INTO results (mutant_code, recorded_metric, recorded_number) VALUES
  ('T15H', 'protein stability index', 4.05),
  ('T2L', 'protein stability index', 3.61);

// for each variant in input: emit protein stability index
1. R16E
2. T13D
3. R20S

Reply:
3.63
4.44
3.55
